- STUDY_TARGET: CCK-1 receptor (Homo sapiens, UniProt P32238)
- Construct: expressed in transfected cells; host or cells: CHO-K1
- Sequence (P32238 whole entry): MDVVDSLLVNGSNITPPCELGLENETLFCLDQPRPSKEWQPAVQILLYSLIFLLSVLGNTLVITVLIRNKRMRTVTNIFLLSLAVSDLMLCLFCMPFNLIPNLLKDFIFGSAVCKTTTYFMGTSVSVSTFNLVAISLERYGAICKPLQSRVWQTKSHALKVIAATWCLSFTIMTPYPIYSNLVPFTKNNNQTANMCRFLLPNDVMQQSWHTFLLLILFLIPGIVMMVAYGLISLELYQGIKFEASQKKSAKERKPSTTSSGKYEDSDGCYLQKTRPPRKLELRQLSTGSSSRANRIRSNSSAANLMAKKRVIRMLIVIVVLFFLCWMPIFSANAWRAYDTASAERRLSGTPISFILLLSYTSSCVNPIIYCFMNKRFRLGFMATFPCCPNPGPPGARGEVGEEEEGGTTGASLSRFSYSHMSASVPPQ
- MEASUREMENT_DESCRIPTION: CCK1 binding assay ([125I]-BH-CCK-8S displacement, CHO-K1 membranes)
- MEASUREMENT_SETUP: membranes of CHO-K1 cells stably transfected with the CCK-1 receptor; 20 pM [125I]-BH-CCK-8S; 0.3 μM PD-134,308 present; 60 min at 21±3° C.; read-out: CCK1 pKi (converted)
API: label(entry) gives 1 if the entry's Ki is strictly smaller than 300 nM; on equality or larger values it gives 0.

Here's what some known entries look like.
O=C(N[C@@H](Cc1ccc(Cl)cc1)C(=O)O)c1ccc(I)cc1NS(=O)(=O)c1c(F)cccc1F [Example 34]
0
O=C(N[C@@H](Cc1ccc(Cl)c(Cl)c1)C(=O)O)c1ccc(I)cc1NS(=O)(=O)c1cccc2nccnc12 [Example 132]
1
O=C(N[C@@H](Cc1ccc(F)cc1)C(=O)O)c1ccc(Cl)cc1NS(=O)(=O)c1cccc2nsnc12 [Example 76]
0
CC(CNC(=O)c1ccc(I)cc1NS(=O)(=O)c1cccc2nccnc12)c1ccc(Cl)c(Cl)c1 (centres unmarked) [Example 40]
1
C[C@H](NC(=O)c1ccc(Cl)cc1NS(=O)(=O)c1cccc2nsnc12)C(O)(c1ccccc1)c1ccccc1 [Example 74]
0
COC(=O)[C@H](Cc1csc2ccccc12)NC(=O)c1ccc(Cl)cc1NS(=O)(=O)c1cccc2nccnc12 [Example 65]
0
O=C(N[C@@H](C(=O)O)[C@@H](O)c1ccc(Cl)c(Cl)c1)c1ccc(Cl)cc1NS(=O)(=O)c1cccc2nsnc12 (relative stereo) [Example 121]
1
CCOC(=O)[C@H](Cc1ccc(F)c(Br)c1)NC(=O)c1cc(Cl)c(Cl)cc1NS(=O)(=O)c1cccc2nsnc12 [Example 163]
1
O=C(N[C@@H](Cc1ccccc1)C(=O)O)c1cc(Cl)c(Cl)cc1NS(=O)(=O)c1cccc2nsnc12 [Example 3]
0
CC(Cc1ccc(Cl)cc1)NC(=O)c1ccc(Br)cc1NS(=O)(=O)c1cccc2scnc12 (centres unmarked) [Example 23]
0

## Input Confirm or reject: Ki of O=C(N[C@@H](Cc1ccc(F)c(Br)c1)C(=O)O)c1ccc(I)cc1NS(=O)(=O)c1cccc2nccnc12 [Example 126] lies strictly below 300 nM
## Output 1

## Input Also need O=C(N[C@@H](Cc1ccc(Cl)cc1)C(=O)O)c1ccc(I)cc1NS(=O)(=O)c1cccc2nsnc12 [Example 33] , thanks.
## Output 1

## Input Also need CC(CNC(=O)c1ccc(Br)cc1NS(=O)(=O)c1c(F)cccc1F)c1ccc(Cl)cc1 (centres unmarked) [Example 24] , thanks.
## Output 1

## Input Also need CC(CNC(=O)c1ccc(Cl)cc1NS(=O)(=O)c1ccc(F)cc1F)c1ccc(Cl)c(Cl)c1 (racemic) [Example 10] , thanks.
## Output 1

###

- STUDY_TARGET: CCK2 receptor (Homo sapiens, UniProt P32239)
- Construct: analyzed for ZFP expression as well as CCK2R induction upon addition of doxycycline to the culture medium; endogenous in cells
- MEASUREMENT_DESCRIPTION: CCK2 binding assay ([125I]-BH-CCK-8S displacement, HEKZFP membranes)
- MEASUREMENT_SETUP: membranes of doxycycline-induced HEKZFP cells; 20 pM [125I]-BH-CCK-8S; 60 min at 21±3° C.; read-out: CCK2 pKi (converted)
ENDPOINT_LABEL: Ki (nM)
Provide only the numeric value, understood in nM.

## Input If you can, please state the reported Ki value of O=C(NCCc1ccc(Cl)cc1Cl)c1ccccc1NS(=O)(=O)c1cccc2nsnc12 .
## Output 3980

## Input Also need O=C(N[C@@H](Cc1ccccc1)C(=O)O)c1ccc(I)cc1NS(=O)(=O)c1cccc2nccnc12 , thanks.
## Output 31.6

## Input Also need COC(=O)[C@H](Cc1ccc(Cl)c(Cl)c1)NC(=O)c1ccc(I)cc1NS(=O)(=O)c1cccc2nsnc12 , thanks.
## Output 251

## Input Also need O=C(N[C@@H](Cc1cccc(I)c1)C(=O)O)c1ccc(I)cc1NS(=O)(=O)c1cccc2nsnc12 , thanks.
## Output 7.94

###

- STUDY_TARGET: CCK2 receptor (Homo sapiens, UniProt P32239)
- Construct: analyzed for ZFP expression as well as CCK2R induction upon addition of doxycycline to the culture medium; endogenous in cells
- Sequence (P32239 1-447): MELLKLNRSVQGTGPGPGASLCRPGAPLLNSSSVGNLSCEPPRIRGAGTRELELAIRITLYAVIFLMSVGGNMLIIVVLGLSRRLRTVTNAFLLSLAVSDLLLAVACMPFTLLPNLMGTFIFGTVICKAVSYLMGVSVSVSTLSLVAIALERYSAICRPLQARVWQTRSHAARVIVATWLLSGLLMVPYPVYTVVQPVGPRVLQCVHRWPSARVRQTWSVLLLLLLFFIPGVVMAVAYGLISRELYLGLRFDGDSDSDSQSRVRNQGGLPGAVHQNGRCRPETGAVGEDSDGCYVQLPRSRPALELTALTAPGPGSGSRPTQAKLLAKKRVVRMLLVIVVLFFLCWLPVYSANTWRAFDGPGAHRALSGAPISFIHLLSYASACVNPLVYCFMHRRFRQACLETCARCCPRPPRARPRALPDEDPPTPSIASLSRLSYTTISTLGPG
- MEASUREMENT_DESCRIPTION: CCK2 binding assay ([125I]-BH-CCK-8S displacement, HEKZFP membranes)
- MEASUREMENT_SETUP: membranes of doxycycline-induced HEKZFP cells; 20 pM [125I]-BH-CCK-8S; 60 min at 21±3° C.; read-out: CCK2 pKi (converted)
ENDPOINT_LABEL: Ki (nM)
Provide only the numeric value, understood in nM.

See these solved cases before continuing.
C[C@H](CNC(=O)c1ccc(Br)cc1NS(=O)(=O)c1c(F)cccc1F)c1ccccc1
3980
O=C(NC(CO)Cc1ccc(Cl)cc1)c1ccc(Cl)cc1NS(=O)(=O)c1cccc2nsnc12 (racemic)
100
COC(=O)[C@H](Cc1ccc(Cl)c(I)c1)NC(=O)c1ccc(I)cc1NS(=O)(=O)c1cccc2nccnc12
200
O=C(N[C@@H](Cc1ccc(F)c(Br)c1)C(=O)O)c1ccc(I)cc1NS(=O)(=O)c1cccc2nccnc12
5.01
O=C(N[C@H](C(=O)O)C(c1ccc(Cl)cc1)c1ccc(Cl)cc1)c1ccc(I)cc1NS(=O)(=O)c1cccc2nsnc12
1000

Next molecule, please.
## Input If you can, please state the reported Ki value of COC(=O)C[C@H](Cc1ccc(Cl)cc1)NC(=O)c1ccc(Cl)cc1NS(=O)(=O)c1cccc2nccnc12 .
## Output 631

###

- STUDY_TARGET: CCK2 receptor (Homo sapiens)
- Construct: analyzed for ZFP expression as well as CCK2R induction upon addition of doxycycline to the culture medium; endogenous in cells
- Sequence (P32239 1-447): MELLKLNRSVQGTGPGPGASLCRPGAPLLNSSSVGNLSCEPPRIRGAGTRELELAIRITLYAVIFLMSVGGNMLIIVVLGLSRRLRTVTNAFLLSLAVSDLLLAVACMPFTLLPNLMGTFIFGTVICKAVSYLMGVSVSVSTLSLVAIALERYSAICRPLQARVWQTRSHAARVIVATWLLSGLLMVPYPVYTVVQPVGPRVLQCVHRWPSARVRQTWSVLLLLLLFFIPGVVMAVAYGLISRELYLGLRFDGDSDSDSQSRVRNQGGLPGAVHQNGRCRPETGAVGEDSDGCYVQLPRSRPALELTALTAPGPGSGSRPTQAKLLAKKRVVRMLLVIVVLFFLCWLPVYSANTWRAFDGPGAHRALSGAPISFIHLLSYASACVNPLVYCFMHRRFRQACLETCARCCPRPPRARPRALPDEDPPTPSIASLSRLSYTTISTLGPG
- MEASUREMENT_DESCRIPTION: CCK2 binding assay ([125I]-BH-CCK-8S displacement, HEKZFP membranes)
- MEASUREMENT_SETUP: membranes of doxycycline-induced HEKZFP cells; 20 pM [125I]-BH-CCK-8S; 60 min at 21±3° C.; read-out: CCK2 pKi (converted)
API: label(entry) gives criterion met if the entry's Ki is strictly smaller than 200 nM; on equality or larger values it gives criterion not met.

COC(=O)C(NC(=O)c1ccc(Cl)cc1NS(=O)(=O)c1cccc2nccnc12)C(=O)c1ccc(Cl)c(Cl)c1 (racemic)
criterion not met
O=C(N[C@@H](Cc1cccc(Cl)c1)C(=O)O)c1ccc(Cl)cc1NS(=O)(=O)c1cccc2nccnc12
criterion met
C[C@@H](NC(=O)c1ccc(I)cc1NS(=O)(=O)c1cccc2nsnc12)[C@@H](O)c1ccc(Cl)cc1
criterion not met

## Input Confirm or reject: Ki of COC(=O)[C@H](Cc1ccc(F)c(Br)c1)NC(=O)c1ccc(I)cc1NS(=O)(=O)c1cccc2nsnc12 lies strictly below 200 nM
## Output criterion met

## Input Also need CC(C)(c1ccc(Cl)cc1)[C@H](NC(=O)c1ccc(I)cc1NS(=O)(=O)c1cccc2nsnc12)C(=O)O , thanks.
## Output criterion not met

## Input Also need O=C(N[C@@H](Cc1ccc(Cl)cc1Cl)C(=O)O)c1ccc(I)cc1NS(=O)(=O)c1cccc2nsnc12 , thanks.
## Output criterion met
